# Test system: TTR
# ASSAY METHOD TEXT: TTR editing in primary human hepatocytes transfected with Spy Cas9 protein (RNP) loaded with dgRNAs (Table 8)
# Format: cell-based
# DETAILS: dgRNA transfected with Spy Cas9 protein (RNP)
Please respond with reported Avg % Edit for every item in the list.
Numbers only, in %.

// known answers, use as guide
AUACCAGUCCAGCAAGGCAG (tested as dual guide RNA, chemistry not given here) [CR003338] :: 61.34
AAAUAGACACCAAAUCUUAC (tested as dual guide RNA, chemistry not given here) [CR003366] :: 42.74
CUGGUAUUUGUGUCUGAGGC (tested as dual guide RNA, chemistry not given here) [CR003341] :: 19.66
CUGAGGAGGAAUUUGUAGAA (tested as dual guide RNA, chemistry not given here) [CR003364] :: 35.29
GCGGCAAUGGUGUAGCGGCG (tested as dual guide RNA, chemistry not given here) [CR003377] :: 12.77
CCUCCUCUGCCUUGCUGGAC (tested as dual guide RNA, chemistry not given here) [CR003336] :: 30.70

The record that follows has no Avg % Edit shown yet.
Tested system TTR; Avg % Edit recorded for UUCUUUGGCAACUUACCCAG (tested as dual guide RNA, chemistry not given here) [CR003357] was 49.35

====

# System: TTR
# ASSAY METHOD TEXT: TTR editing in HepG2 cells transfected with Spy Cas9 mRNA and dgRNAs (Table 6)
# Format: cell-based, human
# DETAILS: HepG2 cells co-transfected with Spy Cas9 mRNA (SEQ ID NO:2) and dgRNAs
# Procedure: HepG2 cell line. The human hepatocellular carcinoma cell line HepG2 (American Type Culture Collection, Cat. HB-8065) was cultured in DMEM media supplemented with 10% fetal bovine serum. Cells were counted and plated on Bio-coat collagen I coated 96-well plates (ThermoFisher, Cat. 877272) at a density of 10,000 cells/well in a 96-well plate 24 hours prior to transfection. Cells were transfected with Lipofectamine 2000 (ThermoFisher, Cat. 11668019) per the manufacturer's protocol. […]
For each of the sequences below, state its Avg % Insert.
Answers are plain numbers, in %.

CCCAGAGGCAAAUGGCUCCC (tested as dual guide RNA, chemistry not given here) [CR003355] :: 12.36
GUGAGUCUGGAGAGCUGCAU (tested as dual guide RNA, chemistry not given here) [CR003360] :: 38.94
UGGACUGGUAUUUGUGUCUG (tested as dual guide RNA, chemistry not given here) [CR003340] :: 6.12

The following sequences each have a reported value; give each one's Avg % Insert.
1. GUCACAGAAACACUCACCGU (tested as dual guide RNA, chemistry not given here) [CR005301]
2. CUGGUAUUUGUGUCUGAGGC (tested as dual guide RNA, chemistry not given here) [CR003341]
3. CACAUGCACGGCCACAUUGA (tested as dual guide RNA, chemistry not given here) [CR003350]
4. GCGGCGGGGGCCGGAGUCGU (tested as dual guide RNA, chemistry not given here) [CR003374]
5. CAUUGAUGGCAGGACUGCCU (tested as dual guide RNA, chemistry not given here) [CR003347]
6. CUCUGCAUGCUCAUGGAAUG (tested as dual guide RNA, chemistry not given here) [CR003369]
7. UCACAGAAACACUCACCGUA (tested as dual guide RNA, chemistry not given here) [CR005300]
8. GGCUGUCGUCACCAAUCCCA (tested as dual guide RNA, chemistry not given here) [CR003391]

33.39
9.94
25.16
5.12
21.08
17.11
53.20
48.28
